Reference source for all entries: patent US7994209B2

IC50 listing for selected compounds.
Target: hSERT (Homo sapiens, UniProt P31645)
Sequence (P31645 whole entry): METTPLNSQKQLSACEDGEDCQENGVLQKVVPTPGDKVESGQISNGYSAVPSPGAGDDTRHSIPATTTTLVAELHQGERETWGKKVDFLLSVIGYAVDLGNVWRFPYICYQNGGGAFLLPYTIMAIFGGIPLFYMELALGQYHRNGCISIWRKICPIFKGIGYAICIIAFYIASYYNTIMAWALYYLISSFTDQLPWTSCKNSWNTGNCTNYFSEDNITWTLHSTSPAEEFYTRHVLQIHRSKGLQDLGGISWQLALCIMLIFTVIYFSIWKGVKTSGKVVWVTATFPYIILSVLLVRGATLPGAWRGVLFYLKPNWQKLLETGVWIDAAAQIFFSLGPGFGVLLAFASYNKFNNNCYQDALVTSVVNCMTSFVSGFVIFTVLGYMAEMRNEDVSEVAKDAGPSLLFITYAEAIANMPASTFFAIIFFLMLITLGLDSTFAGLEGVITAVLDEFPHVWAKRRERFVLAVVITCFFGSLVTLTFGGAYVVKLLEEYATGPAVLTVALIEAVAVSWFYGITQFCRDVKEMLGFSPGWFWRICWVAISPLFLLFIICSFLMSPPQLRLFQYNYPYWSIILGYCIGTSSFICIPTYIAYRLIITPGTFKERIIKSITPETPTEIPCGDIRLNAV
Assay: fluorescence-based serotonin reuptake inhibition assay (Tsuruda et al. 2010; data indicated by an asterisk)
Assay type: cell-based
Set-up: expressed in transfected cells; host or cells: HEK-293
Settings: fluorescence-based assay (values with asterisk), read-out: SERT pIC50 (converted)

Past entries and their recorded results:
## Task What does the record list as IC50 for CC[C@@H](Oc1ccc(Cl)cc1)[C@H]1CCNC1 [Example 2-4] ?
## Result ≤ 10 nM

## Task What does the record list as IC50 for CC(C)C[C@@H](Oc1ccc(Cl)cc1F)[C@H]1CCNC1 [Example 10-40] ?
## Result ≤ 100 nM

## Task What does the record list as IC50 for Clc1ccc(OC(C2CCCC2)C2CCNC2)c(Cl)c1 (single isomer, unassigned) [Example 18-4] ?
## Result ≤ 10 nM

## Task What does the record list as IC50 for CC(C)C[C@@H](Oc1ccc(Cl)c(F)c1)[C@H]1CCNC1 [Example 10-71] ?
## Result ≤ 10 nM

## Task What does the record list as IC50 for CCC[C@H](Oc1cc(F)cc(Cl)c1)[C@H]1CCNC1 [Example 4-11] ?
## Result ≤ 100 nM

Others:
## Task What does the record list as IC50 for Cc1c(Cl)cccc1O[C@H](C(C)C)[C@@H]1CCNC1 [Example 6-41] ?
## Result ≤ 10 nM

## Task What does the record list as IC50 for CC(C)C[C@H](Oc1cccc(C(F)(F)F)c1F)[C@H]1CCNC1 [Example 10-21] ?
## Result ≤ 10 nM

## Task What does the record list as IC50 for CC[C@@H](Oc1cccc(Cl)c1Cl)[C@H]1CCNC1 [Example 2-31] ?
## Result ≤ 10 nM
